B1: FBXO3 (parent)
chain: HDPLWRRHCKKYWLISEEEKTQKN

Variants of: B1
protocol-description: protein stability index of a GFP-peptide fusion (GPS, HEK-293T) (PSI 1-6); higher = more stable;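 also: lentivirally expressed fusions sorted by FACS into six bins by GFP to DsRed ratio, PSI derived from sequencing read proportions per bin multiplied by bin number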
measurement-context: c terminus: a fixed tail appended
measured-endpoint: protein stability index
// print number alone

Task item: I'd like to know its protein stability index. The variant in question is P3L
Reply: 3.12

Task item: I'd like to know its protein stability index. The variant in question is I15E
Reply: 3.88

Task item: I'd like to know its protein stability index. The variant in question is H1E
Reply: 3.84

Task item: I'd like to know its protein stability index. The variant in question is H8Y
Reply: 2.2

Task item: I'd like to know its protein stability index. The variant in question is L4G
Reply: 3.75

Task item: I'd like to know its protein stability index. The variant in question is Q22N
Reply: 3.19

Task item: I'd like to know its protein stability index. The variant in question is E19F
Reply: 2.04

Task item: I'd like to know its protein stability index. The variant in question is R6W
Reply: 2.46

Task item: I'd like to know its protein stability index. The variant in question is E17Y
Reply: 2.62

Task item: I'd like to know its protein stability index. The variant in question is H1Q
Reply: 3.13

Task item: I'd like to know its protein stability index. The variant in question is T21W
Reply: 2.44

Task item: I'd like to know its protein stability index. The variant in question is E19Q
Reply: 3.26

Task item: I'd like to know its protein stability index. The variant in question is I15T
Reply: 3.61

Task item: I'd like to know its protein stability index. The variant in question is R6P
Reply: 1.82

Task item: I'd like to know its protein stability index. The variant in question is C9N
Reply: 4.14

Task item: I'd like to know its protein stability index. The variant in question is Y12N
Reply: 3.58

Task item: I'd like to know its protein stability index. The variant in question is N24H
Reply: 2.99

Task item: I'd like to know its protein stability index. The variant in question is Y12E
Reply: 4.48

Task item: I'd like to know its protein stability index. The variant in question is R7F
Reply: 2.21

Task item: I'd like to know its protein stability index. The variant in question is Q22W
Reply: 2.05

Task item: I'd like to know its protein stability index. The variant in question is T21K
Reply: 2.94

Task item: I'd like to know its protein stability index. The variant in question is L4R
Reply: 2.33

Task item: I'd like to know its protein stability index. The variant in question is S16N
Reply: 3.5

Task item: I'd like to know its protein stability index. The variant in question is T21Q
Reply: 3.21

Task item: I'd like to know its protein stability index. The variant in question is K11F
Reply: 2.4

Task item: I'd like to know its protein stability index. The variant in question is L4D
Reply: 4.6

Task item: I'd like to know its protein stability index. The variant in question is R6D
Reply: 4.04

Task item: I'd like to know its protein stability index. The variant in question is D2T
Reply: 1.87

Task item: I'd like to know its protein stability index. The variant in question is W5V
Reply: 3.81

Task item: I'd like to know its protein stability index. The variant in question is C9V
Reply: 3.8

Task item: I'd like to know its protein stability index. The variant in question is Q22M
Reply: 3.01

Task item: I'd like to know its protein stability index. The variant in question is H8A
Reply: 2.63

Task item: I'd like to know its protein stability index. The variant in question is T21C
Reply: 3.39

Task item: I'd like to know its protein stability index. The variant in question is S16Q
Reply: 2.99

Task item: I'd like to know its protein stability index. The variant in question is Q22G
Reply: 3.18

Task item: I'd like to know its protein stability index. The variant in question is E19A
Reply: 2.83

Task item: I'd like to know its protein stability index. The variant in question is W13A
Reply: 4.04

Task item: I'd like to know its protein stability index. The variant in question is I15N
Reply: 3.67

Task item: I'd like to know its protein stability index. The variant in question is K11E
Reply: 3.59

Task item: I'd like to know its protein stability index. The variant in question is C9H
Reply: 3.42

Task item: I'd like to know its protein stability index. The variant in question is T21I
Reply: 3.29

Task item: I'd like to know its protein stability index. The variant in question is D2E
Reply: 2.62

Task item: I'd like to know its protein stability index. The variant in question is N24T
Reply: 3.47

Task item: I'd like to know its protein stability index. The variant in question is N24Y
Reply: 2.44

Task item: I'd like to know its protein stability index. The variant in question is L4F
Reply: 3.52

Task item: I'd like to know its protein stability index. The variant in question is K11W
Reply: 2.41

Task item: I'd like to know its protein stability index. The variant in question is S16Y
Reply: 2.72

Task item: I'd like to know its protein stability index. The variant in question is H1W
Reply: 2.15

Task item: I'd like to know its protein stability index. The variant in question is N24G
Reply: 2.61

Task item: I'd like to know its protein stability index. The variant in question is P3H
Reply: 2.97

Task item: I'd like to know its protein stability index. The variant in question is L14N
Reply: 4.4

Task item: I'd like to know its protein stability index. The variant in question is R6H
Reply: 3.51

Task item: I'd like to know its protein stability index. The variant in question is R6Y
Reply: 2.7

Task item: I'd like to know its protein stability index. The variant in question is C9K
Reply: 3.59

Task item: I'd like to know its protein stability index. The variant in question is L14P
Reply: 4.11

Task item: I'd like to know its protein stability index. The variant in question is E18R
Reply: 2.81

Task item: I'd like to know its protein stability index. The variant in question is L14H
Reply: 3.49

Task item: I'd like to know its protein stability index. The variant in question is R7S
Reply: 3.46

Task item: I'd like to know its protein stability index. The variant in question is E19G
Reply: 3.05

Task item: I'd like to know its protein stability index. The variant in question is W5Y
Reply: 4.71

Task item: I'd like to know its protein stability index. The variant in question is L14E
Reply: 3.77

Task item: I'd like to know its protein stability index. The variant in question is K20A
Reply: 2.85

Task item: I'd like to know its protein stability index. The variant in question is K20D
Reply: 3.35

Task item: I'd like to know its protein stability index. The variant in question is D2H
Reply: 2.18

Task item: I'd like to know its protein stability index. The variant in question is H1I
Reply: 2.06

Task item: I'd like to know its protein stability index. The variant in question is K20R
Reply: 3.38

Task item: I'd like to know its protein stability index. The variant in question is K23A
Reply: 3.34

Task item: I'd like to know its protein stability index. The variant in question is E18V
Reply: 2.5

Task item: I'd like to know its protein stability index. The variant in question is K11G
Reply: 2.7

Task item: I'd like to know its protein stability index. The variant in question is R6L
Reply: 2.89

Task item: I'd like to know its protein stability index. The variant in question is E19N
Reply: 2.88

Task item: I'd like to know its protein stability index. The variant in question is P3R
Reply: 2.91

Task item: I'd like to know its protein stability index. The variant in question is R7N
Reply: 3.46

Task item: I'd like to know its protein stability index. The variant in question is W5G
Reply: 3.96

Task item: I'd like to know its protein stability index. The variant in question is R6A
Reply: 2.99

Task item: I'd like to know its protein stability index. The variant in question is C9S
Reply: 3.27

Task item: I'd like to know its protein stability index. The variant in question is R7C
Reply: 2.95

Task item: I'd like to know its protein stability index. The variant in question is Q22V
Reply: 3.44

Task item: I'd like to know its protein stability index. The variant in question is C9G
Reply: 4.08

Task item: I'd like to know its protein stability index. The variant in question is T21H
Reply: 2.86

Task item: I'd like to know its protein stability index. The variant in question is Q22P
Reply: 3

Task item: I'd like to know its protein stability index. The variant in question is R7A
Reply: 3.39
